test system: corn; assay: Example 24, Procedure II: Herbicide No. 1 + co-herbicides Nos. 4, 6, 7, 12 with Antidote Nos. 15 and 17-21; assay type: in vivo; conditions: Herb. No. 1 0.28 Kg/ha + Co-Herb. No. 4 1.12 Kg/ha + antidote 2.24 Kg/ha
Please go through the items and note down their % Inhibition Corn.
Answers are plain numbers, in %.

These recorded examples may help you get a feel for the data.
Let me check: COC(=O)COC(c1ccccc1)c1ccccc1 , system corn, measured % Inhibition Corn is 0

Let me check: CC1(C)OC(c2ccco2)CN1C(=O)C(Cl)Cl (stereo not drawn) , system corn, measured % Inhibition Corn is 5

Let me check: O=C(O)COC(c1ccccc1)c1ccccc1 [compound 18] , system corn, measured % Inhibition Corn is 5

Let me check: O=C(O)COC(c1ccccc1)c1ccccc1 [compound 19] , system corn, measured % Inhibition Corn is 5

Let me check: CC1COc2ccccc2N1C(=O)C(Cl)Cl (stereo not drawn) , system corn, measured % Inhibition Corn is 5

Field: next compound
Let me check: CCSC(=O)COC(c1ccccc1)c1ccccc1 , system corn, measured % Inhibition Corn is 0

----------
tested on: corn; assay: Example 6, Procedure II: Herbicide No. 1 + alachlor (No. 7) with antidotes; assay type: in vivo; conditions: Herbicide No.1 0.14 + No.7 4.48 kg/ha + antidote 8.96 kg/ha
MEASUREMENT TYPE: % Injury Corn (%)
Numbers only, in %.

For record CC1(C(Cl)Cl)OCCO1 the listed % Injury Corn is 0

For record O=C1OC(=O)c2cccc3cccc1c23 the listed % Injury Corn is 15

For record C=CCN(CC=C)C(=O)C(Cl)Cl the listed % Injury Corn is 0

Record % Injury Corn per entry; entries follow.
1. CC1(C)OC(c2ccco2)CN1C(=O)C(Cl)Cl (centres unmarked)
2. O=C(C(Cl)Cl)N1CCOC12CCCCC2

## Output
[10, 10]

----------
Please go through the items and note down their % Injury VL.
system: velvetleaf (Abutilon theophrasti); assay: Example 9, Procedure II: Herbicide No. 1 + pretilachlor (No. 13) with antidotes; format: in vivo; details: Herbicide No.1 0.56 kg/ha + Herbicide No.13 2.24 kg/ha; antidote rate 2.24 kg/ha
Give bare numbers, in %.

These recorded examples may help you get a feel for the data.
Let me check: CC1(C)OC(c2ccco2)CN1C(=O)C(Cl)Cl (centres unmarked) , system velvetleaf (Abutilon theophrasti), measured % Injury VL is 85

Let me check: O=C(C(Cl)Cl)N1CCOC12CCCCC2 , system velvetleaf (Abutilon theophrasti), measured % Injury VL is 85

Let me check: CC1(C(Cl)Cl)OCCO1 , system velvetleaf (Abutilon theophrasti), measured % Injury VL is 90

Record % Injury VL per entry; entries follow.
1. C=CCN(CC=C)C(=O)C(Cl)Cl
2. O=C1OC(=O)c2cccc3cccc1c23

## Output
85
85

----------
system: barnyardgrass (Echinochloa crusgalli); assay: Example 18, Procedure II: Herbicide No. 1 + ERADICANE (EPTC + R-25788) with auxiliary antidotes; assay type: in vivo; conditions: Herbicide No.1 1.12 kg/ha + ERADICANE 8.96 kg/ha; antidote 2.24 kg/ha
Please go through the items and note down their % Injury BYG.
Give bare numbers, in %.

These recorded examples may help you get a feel for the data.
For record C=CCN(CC=C)C(=O)C(Cl)Cl the listed % Injury BYG is 90

For record O=C(C(Cl)Cl)N1CCOC12CCCCC2 the listed % Injury BYG is 85

For record CC1(C(Cl)Cl)OCCO1 the listed % Injury BYG is 85

For record CC1(C)OC(c2ccco2)CN1C(=O)C(Cl)Cl (centres unmarked) the listed % Injury BYG is 93

Field: next compound
For record O=C1OC(=O)c2cccc3cccc1c23 the listed % Injury BYG is 85

----------
test system: barnyardgrass (Echinochloa crusgalli); assay: Example 18, Procedure II: Herbicide No. 1 + ERADICANE (EPTC + R-25788) with auxiliary antidotes; format: in vivo; details: Herbicide No.1 1.12 kg/ha + ERADICANE 8.96 kg/ha; antidote 8.96 kg/ha
MEASUREMENT TYPE: % Injury BYG (%)
Give bare numbers, in %.

These recorded examples may help you get a feel for the data.
For record CC1(C)OC(c2ccco2)CN1C(=O)C(Cl)Cl (centres unmarked) the listed % Injury BYG is 85

For record C=CCN(CC=C)C(=O)C(Cl)Cl the listed % Injury BYG is 85

For record O=C1OC(=O)c2cccc3cccc1c23 the listed % Injury BYG is 95

Record % Injury BYG per entry; entries follow.
1. CC1(C(Cl)Cl)OCCO1
2. O=C(C(Cl)Cl)N1CCOC12CCCCC2

## Output
1. 90
2. 85

----------
tested on: velvetleaf (Abutilon theophrasti); assay: Example 24, Procedure II: Herbicide No. 1 + co-herbicides Nos. 4, 6, 7, 12 with Antidote Nos. 15 and 17-21; format: in vivo; details: Herb. No. 1 0.56 Kg/ha + Co-Herb. No. 12 0.28 Kg/ha + antidote 2.24 Kg/ha
MEASUREMENT TYPE: % Inhibition VL
Please make sure the unit comes right after the number.

These recorded examples may help you get a feel for the data.
For record CC1COc2ccccc2N1C(=O)C(Cl)Cl (stereo not drawn) the listed % Inhibition VL is 95%

For record CC1(C)OC(c2ccco2)CN1C(=O)C(Cl)Cl (stereo not drawn) the listed % Inhibition VL is 99%

For record COC(=O)COC(c1ccccc1)c1ccccc1 the listed % Inhibition VL is 98%

For record CCSC(=O)COC(c1ccccc1)c1ccccc1 the listed % Inhibition VL is 98%

For record O=C(O)COC(c1ccccc1)c1ccccc1 [compound 18] the listed % Inhibition VL is 95%

Field: next compound
For record O=C(O)COC(c1ccccc1)c1ccccc1 [compound 19] the listed % Inhibition VL is 99%

----------
tested on: corn; experiment: Example 19, Procedure II: Herbicide No. 1 + ERADICANE EXTRA with added antidotes; type: in vivo; conditions: Herbicide No.1 0.56 kg/ha + ERADICANE EXTRA 8.96 kg/ha; antidote 8.96 kg/ha
Please go through the items and note down their % Injury Corn.
Give bare numbers, in %.

These recorded examples may help you get a feel for the data.
For record CC1(C(Cl)Cl)OCCO1 the listed % Injury Corn is 15

For record CC1(C)OC(c2ccco2)CN1C(=O)C(Cl)Cl (centres unmarked) the listed % Injury Corn is 30

For record C=CCN(CC=C)C(=O)C(Cl)Cl the listed % Injury Corn is 15

For record O=C(C(Cl)Cl)N1CCOC12CCCCC2 the listed % Injury Corn is 20

Field: next compound
For record O=C1OC(=O)c2cccc3cccc1c23 the listed % Injury Corn is 25

----------
Please go through the items and note down their % Inhibition Corn.
test system: corn; assay: Example 24, Procedure II: Herbicide No. 1 + co-herbicides Nos. 4, 6, 7, 12 with Antidote Nos. 15 and 17-21; format: in vivo; conditions: Herb. No. 1 0.28 Kg/ha + Co-Herb. No. 12 0.28 Kg/ha + antidote 2.24 Kg/ha
One number for each entry, in %.

These recorded examples may help you get a feel for the data.
Let me check: COC(=O)COC(c1ccccc1)c1ccccc1 , system corn, measured % Inhibition Corn is 5

Let me check: CC1(C)OC(c2ccco2)CN1C(=O)C(Cl)Cl (stereo not drawn) , system corn, measured % Inhibition Corn is 5

Record % Inhibition Corn per entry; entries follow.
1. O=C(O)COC(c1ccccc1)c1ccccc1 [compound 18]
2. CC1COc2ccccc2N1C(=O)C(Cl)Cl (stereo not drawn)

## Output
1. 10
2. 5

Record % Inhibition Corn per entry; entries follow.
1. O=C(O)COC(c1ccccc1)c1ccccc1 [compound 19]
2. CCSC(=O)COC(c1ccccc1)c1ccccc1

## Output
1: 5; 2: 10

----------
Please go through the items and note down their % Injury VL.
test system: velvetleaf (Abutilon theophrasti); experiment: Example 10, Procedure II: Herbicide No. 1 + propachlor (No. 5) with antidotes; assay type: in vivo; settings: Herbicide No.1 0.56 kg/ha + Herbicide No.5 4.48 kg/ha; antidote rate 2.24 kg/ha
Numbers only, in %.

For record CC1(C)OC(c2ccco2)CN1C(=O)C(Cl)Cl (centres unmarked) the listed % Injury VL is 80

For record O=C(C(Cl)Cl)N1CCOC12CCCCC2 the listed % Injury VL is 95

For record CC1(C(Cl)Cl)OCCO1 the listed % Injury VL is 80

For record O=C1OC(=O)c2cccc3cccc1c23 the listed % Injury VL is 75

Field: next molecule
For record C=CCN(CC=C)C(=O)C(Cl)Cl the listed % Injury VL is 70

----------
Please go through the items and note down their % Injury Corn.
system: corn; assay: Example 9, Procedure II: Herbicide No. 1 + pretilachlor (No. 13) with antidotes; format: in vivo; conditions: Herbicide No.1 0.14 kg/ha + Herbicide No.13 2.24 kg/ha; antidote rate 2.24 kg/ha
Numbers only, in %.

These recorded examples may help you get a feel for the data.
For record O=C(C(Cl)Cl)N1CCOC12CCCCC2 [compound 7] the listed % Injury Corn is 10

For record C=CCN(CC=C)C(=O)C(Cl)Cl [compound 1] the listed % Injury Corn is 0

For record CC1(C)OC(c2ccco2)CN1C(=O)C(Cl)Cl (stereo not shown) [compound 15] the listed % Injury Corn is 5

Field: next molecule
For record CC1(C(Cl)Cl)OCCO1 [compound 13] the listed % Injury Corn is 10
